Cited source: patent EP4786493A1

# assayed-system: T1, recombinant human Claudin 18.2 protein (GenScript, Z03504) (human, UniProt P56856-2 1-261, limits assumed)
# T1 construct: Bought recombinant protein
# assay-text: SPR Biacore 8K, antibody captured via Fc, human Claudin 18.2 protein as analyte
observation-type: pKd
Field pKd (float): negative decimal logarithm of the concentration in molar.

AHP29153 (antibody, V domains shown) VH: QLQQVESGGGLVQPGGSLRLSCAASRNIGILSTMGWYRQAPGKQRELVATITRGGSTNYGEFVKGRFTISRDNAKNTVYLQMNSLKPEDTAVYYCNVDESWLGTQSYWGRGTTVTVSS VL: QSVLTQPASVSGSPGQSITISCTGTSSDVGGYKYVSWYQQPPGKAPKLIIYEVTKRPSGVPDRFSGSKSGNTASLTVSGLQAEDEADYYCLSYAGSNNVFGTGTKLTVL; 8.00

Let's switch to this binder now.
Input line: Provide pKd value for the following binder: AHP32982 (antibody, V domains shown) VH: QVQLVQSGGGLVQPGGSLRLSCAASRNIGILSTMGWYRQAPGKQRELVATITRGGSTNYGEFVKGRFTISRDNAKNTVYLQMNSLKPEDTAVYYCNVDESWLGTQSYWGRGPLVTVSS VL: DIVMTQSPSSVSASVGDRVTITCRASQGISSWLAWYQQKPGKAPKLLIYAASSLQSGVPSRFSGSGSGTDFTLTISSLQPEDFATYYCQQANSFPLTFGGGTKVEIK
Output line: 7.88
